Multiple publications report Ki for Receptor-type tyrosine-protein kinase FLT3 (Homo sapiens); what follows is a combined list.

// worked examples, Ki included
CCc1cc2c(N[C@H]3CC[C@H](N)CC3)c(C(=O)NCc3ccc(-n4ccnc4)cc3)cnc2[nH]1 = < 100 nM
CN1CCN(c2ccc(-c3cnc4[nH]cc(-c5nncn5-c5cccc(F)c5F)c4c3)cc2)CC1 = 200 to 1000 nM
Cc1cnc(Nc2cncc(Sc3ccc(NC(=O)C4CC4)cc3)n2)s1 = < 1000 nM

// query Ki value for entry Fc1cccc(-c2cnoc2-c2c[nH]c3ncc(/C=C/n4cncn4)cc23)c1F
// result < 200 nM

// query Thanks! And Fc1cccc(-c2cnoc2-c2c[nH]c3ncc(-c4cncnc4)cc23)c1F ?
// result 200 to 1000 nM

// query What do we get for CC(=O)Nc1ccc(-c2cnc3[nH]cc(-c4oncc4-c4cccc(F)c4F)c3c2)cc1 ?
// result < 200 nM

// query Same read-out for Cc1cc(Nc2cc(N3CC(F)(C4CC4)C3)nc(Sc3ccc(NC(=O)CC(F)(F)F)cc3)n2)[nH]n1 ?
// result 65 nM

// query Same lookup for CCCc1cc2c(N[C@H]3CC[C@H](O)CC3)c(-c3cnn(CCN(C)C)c3)cnc2[nH]1 , please.
// result 100 to 1000 nM
